experimental system: MEF-IGF1R cells (stable clone transfected with hIGF-1R) (Homo sapiens)
measurement notes: Proliferation/viability of MEF-IGF1R (Test C), [14C]thymidine incorporation
Assay type: cell-based
test conditions: rhIGF1 100 ng/mL, 72 hours, read-out: Test C IC50
readout label: GI50

Worked examples, 3 compounds total:
compound	experimental system	readout label	observed measurement
CC1(C)C(=O)N(c2ccc(OC(F)(F)F)c(NC(=O)[C@H](N)c3ccccc3)c2)C(=O)N1Cc1ccnc(Nc2cccnc2)c1 [Example 5a]	MEF-IGF1R cells (stable clone transfected with hIGF-1R) (Homo sapiens)	GI50	< 10 nM
CC(C)(C)c1ccc(N2C(=O)N(Cc3ccnc(Nc4cncnc4)n3)C(C)(C)C2=O)cc1 [Example 8]	MEF-IGF1R cells (stable clone transfected with hIGF-1R) (Homo sapiens)	GI50	< 10 nM
CC(C)(C)c1ccc(N2C(=O)N(Cc3ccnc(NC(=O)Nc4cccnc4)c3)C(C)(C)C2=O)cc1 [Example 31O]	MEF-IGF1R cells (stable clone transfected with hIGF-1R) (Homo sapiens)	GI50	10 to 100 nM

Entry CN(C)CC(=O)N1CC(C)(C)c2ccc(N3C(=O)N(Cc4ccnc(Nc5cccnc5)c4)C(C)(C)C3=O)cc21 [Example 31B] , system MEF-IGF1R cells (stable clone transfected with hIGF-1R) (Homo sapiens): what GI50 was measured?
< 10 nM

* * *

This section presents compounds with their documented GI50 values.
experimental system: MEF-IGF1R cells (stable clone transfected with hIGF-1R) (Homo sapiens, UniProt P08069)
Sequence (P08069 whole entry, change not shown): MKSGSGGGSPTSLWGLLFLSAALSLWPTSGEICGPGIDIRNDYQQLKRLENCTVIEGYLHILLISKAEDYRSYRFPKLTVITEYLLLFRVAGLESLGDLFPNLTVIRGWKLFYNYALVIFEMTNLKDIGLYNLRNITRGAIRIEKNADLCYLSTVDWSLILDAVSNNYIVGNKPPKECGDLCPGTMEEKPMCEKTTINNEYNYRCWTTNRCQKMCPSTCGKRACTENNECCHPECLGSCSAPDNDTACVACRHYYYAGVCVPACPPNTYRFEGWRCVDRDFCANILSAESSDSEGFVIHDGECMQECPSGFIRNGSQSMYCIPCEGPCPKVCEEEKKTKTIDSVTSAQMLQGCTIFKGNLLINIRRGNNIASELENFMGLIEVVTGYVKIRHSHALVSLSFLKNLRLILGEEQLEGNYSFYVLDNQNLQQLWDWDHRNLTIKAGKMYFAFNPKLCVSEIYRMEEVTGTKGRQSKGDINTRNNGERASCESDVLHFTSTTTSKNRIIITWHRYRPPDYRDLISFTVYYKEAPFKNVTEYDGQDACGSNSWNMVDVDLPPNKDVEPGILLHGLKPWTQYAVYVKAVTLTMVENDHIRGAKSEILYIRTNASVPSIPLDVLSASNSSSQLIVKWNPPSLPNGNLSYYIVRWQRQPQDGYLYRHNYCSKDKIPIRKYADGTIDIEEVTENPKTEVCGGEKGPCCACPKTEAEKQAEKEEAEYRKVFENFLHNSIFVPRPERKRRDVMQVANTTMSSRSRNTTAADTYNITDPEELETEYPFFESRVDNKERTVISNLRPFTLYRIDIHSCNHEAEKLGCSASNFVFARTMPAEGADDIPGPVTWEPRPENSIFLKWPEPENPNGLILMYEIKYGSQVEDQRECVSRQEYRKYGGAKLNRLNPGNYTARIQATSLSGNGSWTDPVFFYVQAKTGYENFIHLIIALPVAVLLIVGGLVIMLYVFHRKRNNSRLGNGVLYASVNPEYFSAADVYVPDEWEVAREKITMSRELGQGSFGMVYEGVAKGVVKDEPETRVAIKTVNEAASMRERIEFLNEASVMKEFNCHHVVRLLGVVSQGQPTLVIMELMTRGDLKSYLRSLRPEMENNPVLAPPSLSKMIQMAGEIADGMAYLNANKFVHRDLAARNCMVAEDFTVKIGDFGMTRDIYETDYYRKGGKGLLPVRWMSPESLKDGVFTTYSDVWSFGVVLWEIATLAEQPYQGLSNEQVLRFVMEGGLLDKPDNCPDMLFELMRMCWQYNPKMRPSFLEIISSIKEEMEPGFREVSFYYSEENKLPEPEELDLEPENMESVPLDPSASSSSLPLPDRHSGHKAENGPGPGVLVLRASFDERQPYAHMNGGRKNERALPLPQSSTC
measurement notes: Proliferation/viability of MEF-IGF1R (Test C), [14C]thymidine incorporation
Assay type: cell-based
test conditions: rhIGF1 100 ng/mL, 72 hours, read-out: Test C IC50

Worked examples, 2 compounds total:
compound	experimental system	readout label	observed measurement
CC(C)(CO)c1ccc(N2C(=O)N(Cc3ccnc(Nc4cccnc4)c3)C(C)(C)C2=O)cc1 [Example 31N]	MEF-IGF1R cells (stable clone transfected with hIGF-1R) (Homo sapiens, UniProt P08069)	GI50	> 100 nM
CCCCN(C)C(=O)Nc1cc(CN2C(=O)N(c3ccc(C(C)(C)C)cc3)C(=O)C2(C)C)ccn1	MEF-IGF1R cells (stable clone transfected with hIGF-1R) (Homo sapiens, UniProt P08069)	GI50	> 100 nM

Which GI50 is reported for this compound? CC(C)(C)c1ccc(N2C(=O)N(Cc3ccnc(Nc4cccc(CN5CCCC5)c4)c3)C(C)(C)C2=O)cc1 [Example 31G]
< 10 nM

Which GI50 is reported for this compound? CC(C)NCC(=O)N1CC(C)(C)c2ccc(N3C(=O)N(Cc4ccnc(Nc5cccnc5)c4)C(C)(C)C3=O)cc21 [Example 31D]
10 to 100 nM

Which GI50 is reported for this compound? CC(C)(C)c1ccc(N2C(=O)N(Cc3ccnc(NC(=O)NCCCN4CCCC4)c3)C(C)(C)C2=O)cc1
> 100 nM

Which GI50 is reported for this compound? CC(C)(C)c1ccc(N2C(=O)N(Cc3ccnc(NC(=O)N4CCCC4)c3)C(C)(C)C2=O)cc1
10 to 100 nM

Which GI50 is reported for this compound? CN(C)C(=O)Nc1nccc(CN2C(=O)N(c3ccc(C(C)(C)C)cc3)C(=O)C2(C)C)n1
> 100 nM

Which GI50 is reported for this compound? CC(C)(C)c1ccc(N2C(=O)N(Cc3ccnc(Nc4ccc(CN5CCCC5)cc4)c3)C(C)(C)C2=O)cc1 [Example 31F]
< 10 nM

Which GI50 is reported for this compound? CC(C)(C)c1ccc(N2C(=O)N(Cc3ccnc(Nc4cncc(F)c4)c3)C(C)(C)C2=O)cc1 [Example 31A]
> 100 nM

Which GI50 is reported for this compound? CC(C)(C)c1ccc(N2C(=O)N(Cc3ccnc(NC(=O)NCCCCN4CCCC4)c3)C(C)(C)C2=O)cc1
> 100 nM

Which GI50 is reported for this compound? CC(C)(C)c1ccc(N2C(=O)N(Cc3ccnc(Nc4cccc(F)c4)c3)C(C)(C)C2=O)cc1 [Example 31I]
< 10 nM

Which GI50 is reported for this compound? CN(C)C(=O)Nc1cc(CN2C(=O)N(c3ccc4c(c3)N(C(=O)CNC3CCCC3)CC4(C)C)C(=O)C2(C)C)ccn1
10 to 100 nM

Which GI50 is reported for this compound? CC(C)(C)c1ccc(N2C(=O)N(Cc3ccnc(NC4CC4)c3)C(C)(C)C2=O)cc1 [Example 31J]
10 to 100 nM

* * *

This section presents molecules with their documented GI50 values.
experimental system: MEF-IGF1R cells (stable clone transfected with hIGF-1R) (Homo sapiens)
measurement notes: Proliferation/viability of MEF-IGF1R (Test C), [14C]thymidine incorporation
Assay type: cell-based
test conditions: rhIGF1 100 ng/mL, 72 hours, read-out: Test C IC50

Worked examples, 10 molecules total:
molecule	observed measurement
CC(C)(C)c1ccc(N2C(=O)N(Cc3ccnc(Nc4ccc(O)nc4)c3)C(C)(C)C2=O)cc1 [Example 31M]	0.01 to 0.1 µM
CC(C)(C)c1ccc(N2C(=O)N(Cc3ccnc(NC(=O)NC4CCC4)c3)C(C)(C)C2=O)cc1	0.01 to 0.1 µM
CC(C)(C)c1ccc(N2C(=O)N(Cc3ccnc(NC(=O)NC4CCCC4)c3)C(C)(C)C2=O)cc1	> 0.1 µM
CC(C)(C)c1ccc(N2C(=O)N(Cc3ccnc(Nc4cccc(CCN5CCCC5)c4)c3)C(C)(C)C2=O)cc1 [Example 31H]	< 0.01 µM
CC(C)(C)c1ccc(N2C(=O)N(Cc3ccnc(Nc4cccnc4Cl)c3)C(C)(C)C2=O)cc1 [Example 31K]	0.01 to 0.1 µM
CC(C)(C)c1ccc(N2C(=O)N(Cc3ccnc(N)n3)C(C)(C)C2=O)cc1	> 0.1 µM
CN(C)C(=O)Nc1cc(CN2C(=O)N(c3ccc(OC(F)(F)F)c(NC(=O)[C@H](N)c4ccccc4)c3)C(=O)C2(C)C)ccn1	< 0.01 µM
CCCCNC(=O)Nc1cc(CN2C(=O)N(c3ccc(C(C)(C)C)cc3)C(=O)C2(C)C)ccn1	> 0.1 µM
CC(C)(C)c1ccc(N2C(=O)N(Cc3ccnc(NC(=O)N4CCC4)c3)C(C)(C)C2=O)cc1	0.01 to 0.1 µM
CC(C)(C)c1ccc(N2C(=O)N(Cc3ccnc(NC(N)=O)c3)C(C)(C)C2=O)cc1 [Example 31P]	< 0.01 µM

Which GI50 is reported for this molecule? CC(C)(C)c1ccc(N2C(=O)N(Cc3ccnc(Nc4ccc(CCN5CCCC5)cc4)c3)C(C)(C)C2=O)cc1 [Example 31U]
< 0.01 µM

Which GI50 is reported for this molecule? CC(C)(C)c1ccc(N2C(=O)N(Cc3ccnc(Nc4cccnc4)n3)C(C)(C)C2=O)cc1
< 0.01 µM

Which GI50 is reported for this molecule? CC(C)(C)c1ccc(N2C(=O)N(Cc3ccnc(NC(=O)NCCN4CCCC4)c3)C(C)(C)C2=O)cc1
> 0.1 µM

Which GI50 is reported for this molecule? CC(C)(C)c1ccc(N2C(=O)N(Cc3ccnc(NC(=O)N4CCOCC4)c3)C(C)(C)C2=O)cc1
> 0.1 µM

Which GI50 is reported for this molecule? CC(C)(C)c1ccc(N2C(=O)N(Cc3ccnc(NC(=O)NC4CCCCC4)c3)C(C)(C)C2=O)cc1
> 0.1 µM

* * *

experimental system: IGF-1R (human cytoplasmic domain fused with GST) (Homo sapiens, UniProt P08069)
Construct: The human cytoplasmic domain of IGF-1R was cloned by fusion with glutathione S-transferase (GST); made in house; host or cells: SF21 insect cells (baculovirus, pFastBac-GST)
Sequence (P08069 960-1367 limits assumed): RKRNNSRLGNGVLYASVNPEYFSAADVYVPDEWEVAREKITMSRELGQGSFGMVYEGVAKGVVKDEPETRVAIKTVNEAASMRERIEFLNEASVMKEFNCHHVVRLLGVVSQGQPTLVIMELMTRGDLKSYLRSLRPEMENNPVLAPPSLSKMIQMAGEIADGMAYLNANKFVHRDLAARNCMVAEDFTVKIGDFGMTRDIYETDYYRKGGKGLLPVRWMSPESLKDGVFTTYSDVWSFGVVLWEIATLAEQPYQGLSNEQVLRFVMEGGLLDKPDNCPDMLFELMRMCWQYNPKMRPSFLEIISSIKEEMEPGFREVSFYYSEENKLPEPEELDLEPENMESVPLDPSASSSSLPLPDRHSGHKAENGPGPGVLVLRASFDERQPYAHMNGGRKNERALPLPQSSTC
measurement notes: Kinase IGF-1R test (Test A): inhibition of autophosphorylation of the enzyme, HTRF
Assay type: biochemical
test conditions: preincubation with enzyme 30 minutes; 120 μM ATP; read-out: Test A 30′ IC50
readout label: IC50

compound	IC50
CN(C)C(=O)Nc1cc(CN2C(=O)N(c3ccc(OC(F)(F)F)c(NC(=O)[C@H](N)c4ccccc4)c3)C(=O)C2(C)C)ccn1	> 100 nM
CC(C)(C)c1ccc(N2C(=O)N(Cc3ccnc(NC(=O)NC4CCC4)c3)C(C)(C)C2=O)cc1	10 to 100 nM
CN(C)C(=O)Nc1cc(CN2C(=O)N(c3ccc4c(c3)N(C(=O)CNC3CCCC3)CC4(C)C)C(=O)C2(C)C)ccn1	> 100 nM

Which IC50 is reported for this compound? CN(C)CC(=O)N1CC(C)(C)c2ccc(N3C(=O)N(Cc4ccnc(Nc5cccnc5)c4)C(C)(C)C3=O)cc21 [Example 31B]
> 100 nM

Which IC50 is reported for this compound? CC(C)(C)c1ccc(N2C(=O)N(Cc3ccnc(Nc4ccc(CCN5CCCC5)cc4)c3)C(C)(C)C2=O)cc1 [Example 31U]
10 to 100 nM

* * *

experimental system: IGF-1R (human cytoplasmic domain fused with GST) (Homo sapiens, UniProt P08069)
Construct: The human cytoplasmic domain of IGF-1R was cloned by fusion with glutathione S-transferase (GST); made in house; host or cells: SF21 insect cells (baculovirus, pFastBac-GST)
measurement notes: Kinase IGF-1R test (Test A): inhibition of autophosphorylation of the enzyme, HTRF
Format: biochemical
test conditions: preincubation with enzyme 30 minutes; 120 μM ATP; read-out: Test A 30′ IC50
readout label: IC50

Worked examples, 3 compounds total:
compound	IC50
CN(C)CC(=O)N1CC(C)(C)c2ccc(N3C(=O)N(Cc4ccnc(NC(=O)N(C)C)c4)C(C)(C)C3=O)cc21 [Example 31C]	> 100 nM
CC(C)(C)c1ccc(N2C(=O)N(Cc3ccnc(Nc4cncnc4)c3)C(C)(C)C2=O)cc1	10 to 100 nM
CC(C)(C)c1ccc(N2C(=O)N(Cc3ccnc(N)n3)C(C)(C)C2=O)cc1	10 to 100 nM

Now consider a different compound.
Which IC50 is reported for this compound? CC1(C)C(=O)N(c2ccc(OC(F)(F)F)c(NC(=O)[C@H](N)c3ccccc3)c2)C(=O)N1Cc1ccnc(Nc2cccnc2)c1
10 to 100 nM
